Test system: cytokine IL-8 secretion, human monocyte cell line THP-1
assay_name: Inhibition of LPS-triggered IL-8 secretion in THP-1 cells (ELISA)
Format: cell-based
condition_description: Homo sapiens; LPS-triggered IL-8 secretion, THP-1, ELISA of supernatant; read-out: IC50(IL8)
measured_attribute: IC50 (nM)
Numbers only, in nM.

IN: // IC50 lookup, key: Cc1ncc2c(NC3c4ccc(F)c(O)c4C(C)C(C)C3(O)C(F)(F)F)cc(F)cc2n1 (racemic)
OUT: 130

====

target_system: progesterone receptor (PR) (Homo sapiens, UniProt P06401)
Sequence (P06401 whole entry, species assumed): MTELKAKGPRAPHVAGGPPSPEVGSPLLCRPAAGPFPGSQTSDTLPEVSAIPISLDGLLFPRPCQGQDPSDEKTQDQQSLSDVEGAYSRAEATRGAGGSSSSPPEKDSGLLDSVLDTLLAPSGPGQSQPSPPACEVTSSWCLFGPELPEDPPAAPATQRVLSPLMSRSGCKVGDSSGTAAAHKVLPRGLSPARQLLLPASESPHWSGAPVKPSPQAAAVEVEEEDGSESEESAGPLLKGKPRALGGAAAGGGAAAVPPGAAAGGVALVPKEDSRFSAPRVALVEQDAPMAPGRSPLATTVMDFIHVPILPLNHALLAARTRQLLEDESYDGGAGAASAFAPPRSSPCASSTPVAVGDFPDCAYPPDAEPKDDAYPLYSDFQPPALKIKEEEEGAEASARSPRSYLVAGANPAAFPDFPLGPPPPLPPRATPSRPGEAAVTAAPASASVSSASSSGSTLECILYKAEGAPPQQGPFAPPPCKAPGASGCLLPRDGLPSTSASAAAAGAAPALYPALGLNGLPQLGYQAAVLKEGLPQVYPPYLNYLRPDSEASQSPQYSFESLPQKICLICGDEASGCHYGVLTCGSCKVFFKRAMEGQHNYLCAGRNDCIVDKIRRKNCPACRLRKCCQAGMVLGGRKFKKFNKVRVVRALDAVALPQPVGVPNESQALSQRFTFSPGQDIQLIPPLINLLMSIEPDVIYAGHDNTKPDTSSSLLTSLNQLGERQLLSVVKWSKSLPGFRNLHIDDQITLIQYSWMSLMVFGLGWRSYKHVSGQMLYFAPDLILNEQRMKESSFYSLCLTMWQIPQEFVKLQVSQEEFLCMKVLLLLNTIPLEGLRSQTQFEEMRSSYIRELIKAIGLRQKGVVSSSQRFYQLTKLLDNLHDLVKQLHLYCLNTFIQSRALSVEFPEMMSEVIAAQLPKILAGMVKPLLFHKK
assay_name: Binding to the progesterone receptor, recombinantly produced receptor
measured_attribute: IC50

IN: So what's the measured IC50 for this one? Cc1ncc2c(NC3c4ccc(F)c(O)c4C(C)C(C)C3(O)C(F)(F)F)cc(F)cc2n1 (racemic) [Example 3]
OUT: > 1000 nM

====

target_system: glucocorticoid receptor (GR) (Homo sapiens)
Sequence (P04150 whole entry, species assumed): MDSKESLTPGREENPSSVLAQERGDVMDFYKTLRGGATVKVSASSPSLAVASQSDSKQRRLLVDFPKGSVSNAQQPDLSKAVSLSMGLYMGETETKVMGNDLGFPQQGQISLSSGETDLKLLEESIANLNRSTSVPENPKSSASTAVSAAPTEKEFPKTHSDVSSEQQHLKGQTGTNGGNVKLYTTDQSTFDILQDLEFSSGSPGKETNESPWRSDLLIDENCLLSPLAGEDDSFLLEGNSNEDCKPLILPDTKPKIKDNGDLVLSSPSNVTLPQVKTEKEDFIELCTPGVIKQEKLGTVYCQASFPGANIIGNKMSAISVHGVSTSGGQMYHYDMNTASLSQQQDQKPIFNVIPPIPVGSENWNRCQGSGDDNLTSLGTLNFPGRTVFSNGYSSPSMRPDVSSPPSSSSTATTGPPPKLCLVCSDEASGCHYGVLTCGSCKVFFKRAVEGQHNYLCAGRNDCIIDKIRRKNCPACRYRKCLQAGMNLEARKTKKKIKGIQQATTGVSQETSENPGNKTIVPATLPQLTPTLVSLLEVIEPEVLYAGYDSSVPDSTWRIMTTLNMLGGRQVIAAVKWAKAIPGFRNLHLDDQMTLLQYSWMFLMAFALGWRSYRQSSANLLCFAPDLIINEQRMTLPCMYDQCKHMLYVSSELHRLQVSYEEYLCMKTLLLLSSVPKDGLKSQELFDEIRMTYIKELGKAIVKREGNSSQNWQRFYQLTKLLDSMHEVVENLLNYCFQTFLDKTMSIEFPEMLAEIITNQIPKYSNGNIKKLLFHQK
assay_name: Binding to the glucocorticoid receptor, recombinant receptor in Sf9 cytosol, vs [3H]-dexamethasone
condition_description: cytosol of Sf9 cells, [3H]-dexamethasone as reference
measured_attribute: IC50 (nM)
Answers are plain numbers, in nM.

IN: Observed IC50 on glucocorticoid receptor (GR) (Homo sapiens) for Cc1ncc2c(NC3c4ccc(F)c(O)c4C(C)C(C)C3(O)C(F)(F)F)cc(F)cc2n1 (racemic) , please.
OUT: 36
